system: ACHN renal; assay: NCI tumour cell line growth inhibition, 48 h
property_label: TGI

compound	TGI
CC(c1ccccc1)/[N+]([O-])=C/c1ccccc1 (stereo not given)	> 100 µM

// below: TGI requested for another compound
### Prompt Look up TGI for this compound: Cc1ccc(S(=O)(=O)n2c3c(c4ccccc42)CCN2CCC(Br)C[C@@H]32)cc1 (stereo not given in full)
### Response 34.8 µM

====

tested on: DU-145 prostate; assay: NCI tumour cell line growth inhibition, 48 h
Entries and their TGI

compound	property_label	reported
c1ccc(CSc2nnc3c4ccccc4c4ccccc4c3n2)cc1	TGI	> 100 µM
O=C1/C(=C/c2c(Cl)[nH]c3ccccc23)c2ccccc2N1c1ccccc1	TGI	32.9 µM
COc1cccc2c1C(=O)c1ccc3cc(CCl)cc(O)c3c1C2=O	TGI	1.78 µM
CC1=N[C@](C)(C2CC3C=CC2C3=O)COC1=O (stereo not given in full)	TGI	> 100 µM

// below: TGI requested for another compound
### Prompt Look up TGI for this compound: C=C1CCC2C3(C)COC(c4ccccc4Br)OC3CCC2(C)C1C/C=C1/C(=O)OCC1OC(C)=O (stereo not given)
### Response 2.99 µM

====

Entries and their TGI
tested on: SF-268 CNS; assay: NCI tumour cell line growth inhibition, 48 h

molecule	reported
CC1(C)CC[C@]2(C(=O)N3CCOCC3)CC[C@]3(C)C(=CC[C@@H]4[C@@]5(C)C/C(=C/c6ccncc6)C(=O)C(C)(C)[C@@H]5CC[C@]43C)[C@@H]2C1	> 100 µM
S=C(Nc1cc(Cl)c(Cl)cc1Cl)SCc1ccccc1	> 100 µM
CS/C(C)=N/OC(=O)NCCCCNc1ccc(N=[N+]=[N-])cc1	> 100 µM
Cc1n[nH]c(=O)n1/N=C\CC/C=N\n1c(C)n[nH]c1=O	> 100 µM
CCOP(=O)(OCC)C1=C(c2ccccc2)OC(N)=C(C#N)C1c1ccc(Cl)cc1 (stereo unspecified)	> 100 µM
O=C1c2ccccc2CC1C1(O)C(=O)Nc2ccccc21 (stereo unspecified)	> 100 µM

### Prompt Look up TGI for this molecule: CCN(CC)c1ccc(C(=N)c2ccc(N(C)C)cc2)cc1
### Response 5.42 µM

### Prompt Look up TGI for this molecule: CSc1ccccc1C#Cc1ccccc1C#CCCCCO
### Response 28.4 µM

### Prompt Look up TGI for this molecule: Cc1[nH]c2ccccc2c1CCNCc1ccc(/C=C/C(=O)NO)cc1
### Response 0.0605 µM

### Prompt Look up TGI for this molecule: O=C1NC2C=CN(Cc3ccccc3)C=C2C(=O)N2CCCC12 (stereo unspecified)
### Response > 100 µM

### Prompt Look up TGI for this molecule: c1ccc(C2OCC(OC3CCCCO3)CO2)cc1 (stereo unspecified)
### Response > 100 µM

====

tested on: NCI/ADR-RES ovarian; assay: NCI tumour cell line growth inhibition, 48 h
Entries and their TGI

molecule	property_label	reported
O=C1C(=Nc2ccccc2)Oc2cc(O)ccc21	TGI	> 100 µM

### Prompt Look up TGI for this molecule: O=C(/C=C/c1ccc(Cl)cc1)c1cccs1
### Response 74.4 µM

### Prompt Look up TGI for this molecule: CCOc1ccccc1/C=N\N=C(\N)N/N=C/c1ccccc1OCC
### Response > 100 µM

### Prompt Look up TGI for this molecule: O=C(NN1C(=O)CSC1c1ccc(C(F)(F)F)cc1)c1ccncc1 (stereo unspecified)
### Response > 100 µM

### Prompt Look up TGI for this molecule: O=C1/C(=C/c2ccccc2)CCC/C1=C\c1ccc(O)c(CN2CCCCC2)c1
### Response 8.44 µM

### Prompt Look up TGI for this molecule: Nc1ccc(-c2ccc(N)cc2I)c(I)c1
### Response 70 µM

### Prompt Look up TGI for this molecule: O=C(NCCc1ccccc1)c1c(O)c2ccccc2[nH]c1=O
### Response > 100 µM

### Prompt Look up TGI for this molecule: Cn1cc(-c2ccc(-c3cn(C)c4ccc(Cl)cc34)s2)c2cc(Cl)ccc21
### Response > 100 µM

====

system: UACC-62 melanoma; assay: NCI tumour cell line growth inhibition, 48 h
Entries and their GI50

Here are 8 molecules together with their reported answers.
molecule	GI50
FC(F)(F)c1ccc(-c2cnc(Cl)nc2NCc2cc(C(F)(F)F)cc(C(F)(F)F)c2)cc1	3340 nM
O=C(OCCBr)c1ccc(Cl)c([N+](=O)[O-])c1	14500 nM
CCCOC(=O)CCn1c(SC)nc2[nH]cc(-c3ccccc3)c2c1=O	11700 nM
O=C(CN1CCN(c2ccccc2)CC1)N1CCN(c2nnc(-c3ccc(Cl)cc3)c(-c3ccc(Cl)cc3)n2)CC1	15900 nM
OCC1OC(n2cnc3c(=S)nc[nH]c32)C(O)C1O (stereo not given)	3560 nM
COC(=O)C1=C(OC(=O)c2ccc(Cl)cc2)C(C(=O)OC)[C@@]2(O)[C@@H](C(=O)OC)C(c3ccccc3Cl)C[C@@H]1[C@@H]2C(=O)OC (stereo not given in full)	2210 nM
CC(C)(C#N)c1cc(C(=O)Nc2cc(Nc3ncccc3-c3ncnc4nc[nH]c34)ccc2F)cc(C(F)(F)F)c1	87.1 nM
O=C(CCCSc1nc(-c2ccccc2)cc(-c2ccc(Cl)cc2)n1)NO	1450 nM

### Prompt Look up GI50 for this molecule: CC1(C)CC[C@]2(C(=O)N3CCOCC3)CC[C@]3(C)C(=CC[C@@H]4[C@@]5(C)C/C(=C/c6ccncc6)C(=O)C(C)(C)[C@@H]5CC[C@]43C)[C@@H]2C1
### Response 1360 nM

### Prompt Look up GI50 for this molecule: CCCCN(CCCC)c1ccc(C(=NC(C)CCCN(CC)CC)c2ccc(N(C)C)cc2)cc1 (stereo not given)
### Response 909 nM

====

system: MALME-3M melanoma; assay: NCI tumour cell line growth inhibition, 48 h
Entries and their TGI

compound	TGI
COC(=O)C1CCC(=O)N1C(c1ccccc1)c1cc(OC)c(OC)c(OC)c1 (stereo not drawn)	> 100 µM
Cc1ccc(S(=O)(=O)Nn2c(S)c(C#N)c(-c3ccc([N+](=O)[O-])cc3)c(C#N)c2=O)cc1	> 100 µM
COC(=O)[C@@]12C(=O)C(C)C(=O)[C@]1(C)C(C)=C[C@H]1[C@]3(C=O)CC[C@H](OC(C)=O)C(C)(C)[C@H]3CC[C@@]12C (stereo partly drawn)	> 100 µM
CC(C)C12C=CC(C)(CC1)n1c(=O)c3cc4ccccc4cc3c(=O)n12 (stereo not drawn)	> 100 µM
CC1(C)CC[C@]2(C(=O)N3CCOCC3)CC[C@]3(C)C(=CC[C@@H]4[C@@]5(C)C/C(=C/c6ccncc6)C(=O)C(C)(C)[C@@H]5CC[C@]43C)[C@@H]2C1	4.59 µM
CS(=O)(=O)Nc1ccc(N=Cc2c(O)[nH]c3ccccc23)cc1	> 25 µM
O=C1/C(=C/c2ccccc2)CCC/C1=C\c1ccc(O)c(CN2CCCCC2)c1	40.2 µM

// below: TGI requested for another compound
### Prompt Look up TGI for this compound: Cc1n[nH]c(=O)n1/N=C\CC/C=N\n1c(C)n[nH]c1=O
### Response > 100 µM

====

tested on: MDA-MB-435; experiment: NCI tumour cell line growth inhibition, 48 h
property_label: TGI (µM)
Dear colleague, please return just the value in µM, with no unit written.

molecule	target	readout_unit	TGI
COc1ccc(C(=O)/C=C/c2cccnc2)cc1OC	MDA-MB-435	µM	30.1
Cc1[nH]c2ccccc2c1CCNCc1ccc(/C=C/C(=O)NO)cc1	MDA-MB-435	µM	0.0502
COc1cc(C(=O)/C=C/c2cccnc2Nc2ccccc2)cc(OC)c1OC	MDA-MB-435	µM	2.08

### Prompt Entry Clc1nc(NCCc2ccccc2)c2ncn(-c3ccccc3)c2n1 , system MDA-MB-435: what TGI was measured?
### Response 35.1

### Prompt Entry CCOC(=O)C1(C/C=C\CBr)CCCCCCCCCCC1=O (configuration not stated) , system MDA-MB-435: what TGI was measured?
### Response 29.8

====

Entries and their TGI
tested on: MOLT-4 leukemia; test: NCI tumour cell line growth inhibition, 48 h
Dear colleague, please return just the value in µM, with no unit written.

molecule	property_label	readout_unit	reported
O=C1/C(=C/c2c(Cl)[nH]c3ccccc23)c2ccccc2N1c1ccccc1	TGI	µM	31.8
Nc1ccc(-c2ccc(N)cc2I)c(I)c1	TGI	µM	43.6
COC(=O)c1cc(-c2cccn2C)c2c(c1C(=O)OC)c1ccccc1n2C	TGI	µM	29.3
CC1CCC(C(C)C)C(O[C@@H]2OC(=O)C[C@@H]2Sc2ccccc2)C1 (stereo partly drawn)	TGI	µM	32
CCSc1nc(=[N+]2CCCC2)ss1	TGI	µM	30

### Prompt Look up TGI for this molecule: Cc1ccc(S(=O)(=O)Nn2c(S)c(C#N)c(-c3ccc([N+](=O)[O-])cc3)c(C#N)c2=O)cc1
### Response 47.7

### Prompt Look up TGI for this molecule: CC(C)/C(Cl)=N\OC(=O)Nc1ccc(F)cc1F
### Response 3.99

### Prompt Look up TGI for this molecule: Cc1ccc(S(=O)(=O)n2c3c(c4ccccc42)CCN2CCC(Br)C[C@@H]32)cc1 (stereo partly drawn)
### Response 25.8

### Prompt Look up TGI for this molecule: COc1cc(C2C3=C(COC3=O)Nc3cc4c(cc32)CCC4)cc2c1OCO2 (stereo not drawn)
### Response 15.6

### Prompt Look up TGI for this molecule: COc1ccc(-c2nn(-c3cccc(Cl)c3)cc2-c2cc(-c3ccccc3)nc(N)n2)cc1
### Response 5.61

### Prompt Look up TGI for this molecule: COC(=O)C(F)C(Br)C(=O)OC (stereo not drawn)
### Response 3.01

### Prompt Look up TGI for this molecule: COc1ccc(/C=C2\CCC(CN(C)C)C2=O)cc1OC (stereo not drawn)
### Response 7.35

### Prompt Look up TGI for this molecule: CN(CCCN(C)CCc1ccc(Cl)c(Cl)c1)CCCN1CCCC1
### Response 12.4

### Prompt Look up TGI for this molecule: O=C(N/N=C/c1cc([N+](=O)[O-])ccc1O)c1cccc2ccccc12
### Response 21.7

### Prompt Look up TGI for this molecule: CN(C)CCn1c(=O)c2ccc3c4c(nn3CCN(C)C)c3cc(O)ccc3n(c1=O)c24
### Response 0.127
